The entries below come with measured % by weight measured (Fe in solution) values attached.
- Protocol notes: Dissolution of FeCl3 with ligand in aqueous phase at neutral or basic pH; Fe in filtrate by ICP-OES
- Format: physicochemical
- Experimental parameters: Table 3; ligands B-E; pH 7
Entry rule: numbers only, all in % by weight.

Previously resolved entries follow.
O=C(O)C(O)c1cc(F)ccc1O (stereo not shown); 1.4
O=C(O)C(O)c1ccc(O)c(O)c1 (stereo not shown); 1.2
O=C([O-])C(O)c1ccc(O)cc1.[Na+] (stereo not shown); 1.1

// % by weight measured (Fe in solution) lookup, key: CCOc1cc(C(O)C(=O)O)ccc1O (stereo not shown)
1.5

###

- Protocol notes: Dissolution of FeCl3 with ligand in aqueous phase at neutral or basic pH; Fe in filtrate by ICP-OES
- Assay type: physicochemical
- Experimental parameters: Table 3; ligands B-E; pH 7
The entries below come with measured Theoretical % by weight of Fe in solution values attached.
Entry rule: numbers only, all in % by weight.

Previously resolved entries follow.
O=C(O)C(O)c1ccc(O)c(O)c1 (stereo not shown); 1.49
O=C(O)C(O)c1cc(F)ccc1O (stereo not shown); 1.46
CCOc1cc(C(O)C(=O)O)ccc1O (stereo not shown); 1.83

From here, focus on the item given below.
// Theoretical % by weight of Fe in solution lookup, key: O=C([O-])C(O)c1ccc(O)cc1.[Na+] (stereo not shown)
1.47

###

- Protocol notes: Dissolution of FeCl3 with ligand in aqueous phase at neutral or basic pH; Fe in filtrate by ICP-OES
- Assay type: physicochemical
- Experimental parameters: Table 6; comparative ligands; pH 7
Observable: % by weight measured (Fe in solution) (% by weight)
Entry rule: numbers only, all in % by weight.

Previously resolved entries follow.
O=C(O)C(O)c1ccccc1 (stereo not shown) [compound 4, reference compound]; 0.09
O=C(O)C(=O)c1ccccc1O [compound 3, reference compound]; 0.5

// % by weight measured (Fe in solution) lookup, key: O=C(O)C(O)c1ccccc1Cl (stereo not shown) [compound 5, reference compound]
0.01

###

- Protocol notes: Dissolution of FeCl3 with ligand in aqueous phase at neutral or basic pH; Fe in filtrate by ICP-OES
- Type: physicochemical
- Experimental parameters: Table 6; comparative ligands; pH 7
The entries below come with measured Theoretical % by weight of Fe in solution values attached.
Entry rule: numbers only, all in % by weight.

Previously resolved entries follow.
O=C(O)C(O)c1ccccc1Cl (stereo not shown) [compound 5, reference compound]; 4.73
O=C(O)C(=O)c1ccccc1O [compound 3, reference compound]; 4.09
O=C(O)C(O)c1ccccc1 (stereo not shown) [compound 4, reference compound]; 2.38

// Theoretical % by weight of Fe in solution lookup, key: O=C(O)Cc1ccccc1O [compound 2, reference compound]
2.88
